Ref: ChEMBL document CHEMBL6121065

Provide the reported IC50 of each item.
# TESTED ON: Proliferating cell nuclear antigen (Homo sapiens)
# Sequence (P12004 whole entry): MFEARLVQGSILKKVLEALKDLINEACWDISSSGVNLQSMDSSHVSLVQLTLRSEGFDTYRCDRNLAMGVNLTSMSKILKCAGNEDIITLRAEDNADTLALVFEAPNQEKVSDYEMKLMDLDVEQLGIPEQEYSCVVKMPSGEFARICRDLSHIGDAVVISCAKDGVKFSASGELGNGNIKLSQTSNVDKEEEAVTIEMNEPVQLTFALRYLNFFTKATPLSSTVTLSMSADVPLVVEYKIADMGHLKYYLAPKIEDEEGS
# ASSAY PROCEDURE: Inhibition of N-terminal 6His-tagged recombinant PCNA (unknown origin) extracted from Escherichia coli BL21 (DE3) by fluorescence based analysis
Give bare numbers, in nM.

[
  {
    "SMILES DATA": "NC(=O)CN(Cc1ccc(CO)cc1)C(=O)CNC(=O)CN[C@H](CO)Cc1cc(I)c(Oc2ccc(O)cc2)c(I)c1",
    "IC50 [nM]": 5560
  },
  {
    "SMILES DATA": "NCc1ccc(CN(CC(N)=O)C(=O)CN(CCO)C(=O)CN[C@H](CO)Cc2cc(I)c(Oc3ccc(O)cc3)c(I)c2)cc1",
    "IC50 [nM]": 1180
  }
]

Let us examine a further case.
Measured IC50 of `N[C@H](CNC(=O)NC(=O)CCN1CCOCC1)Cc1cc(I)c(Oc2ccc(O)cc2)c(I)c1` : 1200
